For each of the compounds below, state its pIC50.
# tested-system: Msmeg (Mycolicibacterium smegmatis)
# Sequence (A0QNE0 whole entry): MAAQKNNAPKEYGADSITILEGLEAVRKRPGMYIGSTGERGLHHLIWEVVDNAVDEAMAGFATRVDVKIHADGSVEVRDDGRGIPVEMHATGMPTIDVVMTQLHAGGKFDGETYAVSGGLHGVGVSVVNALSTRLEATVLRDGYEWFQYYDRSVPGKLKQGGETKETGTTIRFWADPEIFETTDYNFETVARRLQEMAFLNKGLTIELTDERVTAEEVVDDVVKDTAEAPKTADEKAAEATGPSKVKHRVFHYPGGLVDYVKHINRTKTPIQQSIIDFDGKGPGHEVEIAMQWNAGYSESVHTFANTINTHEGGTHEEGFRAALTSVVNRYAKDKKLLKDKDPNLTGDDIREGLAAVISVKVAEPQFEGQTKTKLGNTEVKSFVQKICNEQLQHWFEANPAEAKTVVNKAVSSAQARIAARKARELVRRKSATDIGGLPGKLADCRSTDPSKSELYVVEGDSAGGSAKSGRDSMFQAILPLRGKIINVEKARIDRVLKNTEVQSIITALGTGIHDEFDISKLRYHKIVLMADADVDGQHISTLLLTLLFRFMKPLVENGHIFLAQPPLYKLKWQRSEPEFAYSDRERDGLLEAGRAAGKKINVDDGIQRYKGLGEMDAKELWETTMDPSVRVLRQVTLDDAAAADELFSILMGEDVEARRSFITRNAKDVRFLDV
Give bare numbers, as −log10 of the molar value.

In [3]: df
Out[3]:
                                chem_smiles  measurement_type  value_reported
0  COCCn1ncnc1-c1nc(N2CC[C@@H](NC(=O)c3[nH]c(C)c(Cl)c3Br)[C@@H](F)C2)sc1C(=O)O             pIC50            8.40
1  CO[C@H]1CN(c2nc(-c3ncnn3CC3CC3)c(C(=O)O)s2)CC[C@H]1NC(=O)c1[nH]c(C)c(Br)c1Cl             pIC50            8.40
2  CO[C@H]1CN(c2nc(-c3ncnn3C)c(C(=O)O)s2)CC[C@H]1NC(=O)c1[nH]c(C)c(Br)c1C#N             pIC50            8.00
3  Cc1[nH]c(C(=O)N[C@@H]2CCN(c3nc(-c4ncnn4C)c(C(=O)O)s3)C[C@@H]2OCC2CC2)c(Br)c1Cl             pIC50            8.40
4  COCCn1ncnc1-c1nc(N2CC[C@@H](NC(=O)c3[nH]c(Cl)c(C)c3Cl)[C@@H](OC)C2)sc1C(=O)O             pIC50            7.33

Could I get pIC50 for every one of these entries?
1. CCn1ncnc1-c1nc(N2CC[C@@H](NC(=O)c3[nH]c(Cl)c(C)c3Cl)[C@@H](OC)C2)sc1C(=O)O
2. CO[C@H]1CN(c2nc(-c3ncnn3C)c(C(=O)O)s2)CC[C@H]1NC(=O)c1[nH]c(Cl)c(C)c1Cl

1. 7.35
2. 7.52

# query: pIC50 of entry COCCn1ccnc1-c1nc(N2CC[C@@H](NC(=O)c3[nH]c(C)c(Cl)c3Br)[C@@H](OC)C2)sc1C(=O)O
8.34
